Assayed system: human neurokinin-1-receptor (NK1R) (Homo sapiens, UniProt P25103)
Sequence (P25103 whole entry): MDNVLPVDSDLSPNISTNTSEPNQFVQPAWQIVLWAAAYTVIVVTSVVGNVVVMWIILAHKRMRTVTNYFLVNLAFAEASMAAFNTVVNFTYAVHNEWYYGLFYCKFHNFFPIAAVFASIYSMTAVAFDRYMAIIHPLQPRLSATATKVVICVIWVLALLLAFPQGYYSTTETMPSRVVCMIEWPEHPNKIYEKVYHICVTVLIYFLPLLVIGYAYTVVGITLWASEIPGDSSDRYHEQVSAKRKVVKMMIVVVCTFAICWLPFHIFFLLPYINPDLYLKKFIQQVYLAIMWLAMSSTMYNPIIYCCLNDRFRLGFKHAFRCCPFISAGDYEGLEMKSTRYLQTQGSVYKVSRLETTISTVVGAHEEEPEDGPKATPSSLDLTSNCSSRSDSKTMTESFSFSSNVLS
Test description: biochemical
Experimental setup: 125I-SP binding; cloned human NK1R expressed in COS or CHO; 1 hour at 4° C. or room temperature; cell prints μM in nM column
Quantity measured: IC50

- COC(C=Cc1cc(C(F)(F)F)cc(C(F)(F)F)c1)C(Cc1csc2ccccc12)NC(C)=O (single isomer, unassigned) [3 (Isomer A)]: > 1 µM

###

Assayed system: human neurokinin-1-receptor (NK1R) (Homo sapiens)
Test description: biochemical
Experimental setup: 125I-SP binding; cloned human NK1R expressed in COS or CHO; 1 hour at 4° C. or room temperature
Where a name gives a salt, the structure may show the parent alone.
Quick list: IC50 per entry.
Quantity measured: IC50 (nM)

• CC(=O)NC(Cc1csc2ccccc12)C(=O)CCc1cc(C(F)(F)F)cc(C(F)(F)F)c1 (centres unmarked) = 20
• CC(C)(C)OC(=O)NC(Cc1c[nH]c2ccccc12)C(=O)CCc1cc(C(F)(F)F)cc(C(F)(F)F)c1 (centres unmarked) = 40
• NC(Cc1c[nH]c2ccccc12)C(=O)CCc1cc(C(F)(F)F)cc(C(F)(F)F)c1 (centres unmarked) [Example 11, Hydrochloride] = 15
• CC(=O)NC(Cc1csc2ccccc12)C(CCc1cc(C(F)(F)F)cc(C(F)(F)F)c1)=NO (single isomer, unassigned) [14 (Isomer B)] = 300
• COC(C=Cc1cc(C(F)(F)F)cc(C(F)(F)F)c1)C(Cc1csc2ccccc12)NC(C)=O (single isomer, unassigned) [3 (Isomer B)] = 350
• CC(=O)NC(Cc1ccc(Cl)c(Cl)c1)C(=O)CCc1cc(C(F)(F)F)cc(C(F)(F)F)c1 (centres unmarked) = 40
• CN(C)CCCC(=O)NC(Cc1c[nH]c2ccccc12)C(=O)CCc1cc(C(F)(F)F)cc(C(F)(F)F)c1 (centres unmarked) [Example 17, Hydrochloride] = 0.4
• O=C(NC(Cc1c[nH]c2ccccc12)C(=O)CCc1cc(C(F)(F)F)cc(C(F)(F)F)c1)C1CC1 (centres unmarked) = 2
• COC(CCc1cc(C(F)(F)F)cc(C(F)(F)F)c1)C(Cc1csc2ccccc12)NC(C)=O (single isomer, unassigned) [6 (Isomer B)] = 30
• CC(=O)NC(Cc1csc2ccccc12)C(CCc1cc(C(F)(F)F)cc(C(F)(F)F)c1)=NO (single isomer, unassigned) [14 (Isomer A)] = 200
• CC(=O)NC(Cc1csc2ccccc12)C(O)C=Cc1cc(C(F)(F)F)cc(C(F)(F)F)c1 (single isomer, unassigned) [2 (Isomer A)] = 700
• O=C(NC(Cc1c[nH]c2ccccc12)C(=O)CCc1cc(C(F)(F)F)cc(C(F)(F)F)c1)c1ccccc1 (centres unmarked) = 14
• CC(=O)NC(Cc1csc2ccccc12)C(O)CCc1cc(C(F)(F)F)cc(C(F)(F)F)c1 (single isomer, unassigned) [5 (Isomer B)] = 500
• CN(C)CCCCC(=O)NC(Cc1c[nH]c2ccccc12)C(=O)CCc1cc(C(F)(F)F)cc(C(F)(F)F)c1 (centres unmarked) = 0.6
• CN(C)CC(=O)NC(Cc1csc2ccccc12)C(=O)CCc1cc(C(F)(F)F)cc(C(F)(F)F)c1 (centres unmarked) [Example 9, Hydrochloride] = 30
• CC(=O)NC(Cc1csc2ccccc12)C(=O)C=Cc1cc(C(F)(F)F)cc(C(F)(F)F)c1 (centres unmarked) = 350
• CC(=O)NC(Cc1csc2ccccc12)C(O)CCc1cc(C(F)(F)F)cc(C(F)(F)F)c1 (single isomer, unassigned) [5 (Isomer A)] = 190
• CC(=O)NC(Cc1csc2ccccc12)C(O)C=Cc1cc(C(F)(F)F)cc(C(F)(F)F)c1 (single isomer, unassigned) [2 (Isomer B)] = 300
• COC(CCc1cc(C(F)(F)F)cc(C(F)(F)F)c1)C(Cc1csc2ccccc12)NC(C)=O (single isomer, unassigned) [6 (Isomer A)] = 500
• CC(CC(=O)NC(Cc1c[nH]c2ccccc12)C(=O)CCc1cc(C(F)(F)F)cc(C(F)(F)F)c1)c1ccccc1 (centres unmarked) = 2
